# Tested on: corn (Zea mays)
# assay procedure: Test A postemergence, visual injury rating 0-100
# Format: in vivo
# conditions used: 500 g ai/ha, 0 to 100 scale
Lab note: compare Corn plant response rating against 30. Equal or greater, write met. Smaller, write not met.

Solved entries:
# compound, class
records = [
    ("CC1=[N+]([O-])C(C(=O)Nc2cccc(F)c2F)C(c2ccc(C(F)(F)F)cc2F)C1 (stereo not drawn) [Compound 101]", "met"),
    ("CC1=[N+]([O-])C(C(=O)Nc2cccc(F)c2F)C(c2cc(C(F)(F)F)ccc2C)C1 (stereo not drawn) [Compound 98]", "met"),
    ("CC1=[N+]([O-])[C@@H](C(=O)Nc2cccc(F)c2F)[C@H](c2cccc(Oc3ccc(F)cn3)c2)C1 [Compound 84]", "met"),
    ("CC1=[N+]([O-])C(C(=O)Nc2cccc(F)c2F)C(c2cccc(F)c2C)C1 (racemic) [Compound 78]", "met"),
    ("CC1=[N+]([O-])C(C(=O)Nc2cccc(F)c2F)C(c2cccc(Oc3ncc(Cl)cn3)c2)C1 (racemic) [Compound 115]", "met"),
]

INPUT: Would you say CC1=[N+]([O-])C(C(=O)Nc2cccc(F)c2F)C(c2ccccc2F)C1 (racemic) [Compound 21] shows Corn plant response rating at minimum 30?
OUTPUT: not met

INPUT: Would you say CC1=[N+]([O-])C(C(=O)Nc2cccc(F)c2F)C(c2ccc(C(F)(F)F)c(Br)c2)C1 (racemic) [Compound 73] shows Corn plant response rating at minimum 30?
OUTPUT: met

INPUT: Would you say CC1=[N+]([O-])[C@@H](C(=O)Nc2ccccc2F)[C@H](c2ccc(C(F)(F)F)cc2)C1 (relative stereo) [Compound 26] shows Corn plant response rating at minimum 30?
OUTPUT: not met

INPUT: Would you say CC1=[N+]([O-])C(C(=O)Nc2cccc(F)c2F)C(c2cccc(Br)n2)C1 (racemic) [Compound 65] shows Corn plant response rating at minimum 30?
OUTPUT: not met

INPUT: Would you say CC1=[N+]([O-])C(C(=O)Nc2cccc(F)c2F)C(c2ccc(C(F)(F)F)cn2)C1 (racemic) [Compound 88] shows Corn plant response rating at minimum 30?
OUTPUT: not met

INPUT: Would you say CC1=[N+]([O-])C(C(=O)Nc2cccc(F)c2F)C(c2ccc(Br)cn2)C1 (racemic) [Compound 66] shows Corn plant response rating at minimum 30?
OUTPUT: not met

INPUT: Would you say CC1=[N+]([O-])C(C(=O)Nc2ccc(F)c(F)c2F)C(c2ccc(C(F)(F)F)cc2)C1 (racemic) [Compound 38] shows Corn plant response rating at minimum 30?
OUTPUT: met

INPUT: Would you say CC1=[N+]([O-])C(C(=O)Nc2cccc(F)c2F)C(c2ccc(=O)n(Cc3ccc(Cl)cc3)c2)C1 (racemic) [Compound 119] shows Corn plant response rating at minimum 30?
OUTPUT: not met

INPUT: Would you say COc1cccc(C2CC(C)=[N+]([O-])C2C(=O)Nc2cccc(F)c2F)n1 (racemic) [Compound 67] shows Corn plant response rating at minimum 30?
OUTPUT: not met

* * *

# Test system: barnyardgrass (Echinochloa crus-galli)
# assay procedure: Test B flooded paddy test, visual rating 0-100
# conditions used: Flood, 250 g ai/ha, applied to paddy water, rated after 13 to 15 days
// classify: if (Barnyardgrass plant response rating (0 to 100 scale) < 30) true (1) else false (0)

# compound, experimental system, class
rows = [
    ("CC1=[N+]([O-])C(C(=O)Nc2cccc(F)c2F)C(c2ccc(C#N)cc2)C1 (racemic)", "barnyardgrass (Echinochloa crus-galli)", "true (1)"),
    ("CC1=[N+]([O-])C(C(=O)Nc2cccnc2F)C(c2ccc(C(F)(F)F)cc2)C1 (racemic)", "barnyardgrass (Echinochloa crus-galli)", "true (1)"),
    ("CC1=[N+]([O-])C(C(=O)Nc2ccccc2)C(c2ccc(F)c(F)c2)C1 (racemic)", "barnyardgrass (Echinochloa crus-galli)", "true (1)"),
    ("CC1=[N+]([O-])C(C(=O)Nc2cccc(F)c2F)C(c2cc(C)nc(OC(F)F)c2)C1 (racemic)", "barnyardgrass (Echinochloa crus-galli)", "false (0)"),
    ("CC1=[N+]([O-])C(C(=O)Nc2ccc(F)c(F)c2F)C(c2ccc(C(F)(F)F)cc2)C1 (racemic)", "barnyardgrass (Echinochloa crus-galli)", "false (0)"),
]

INPUT: I wonder whether CC1=[N+]([O-])C(C(=O)Nc2cccc(F)c2Cl)C(c2ccc(C(F)(F)F)cc2)C1 (racemic) has Barnyardgrass plant response rating (0 to 100 scale) below 30. Can you tell?
OUTPUT: true (1)
